# assay-notes: Plasma protein binding in human
# Type: ADME, cell-free
# stated-conditions: read-out: PPB (converted)
property: fraction unbound

                                   compound          property  value
0  O=C(O)c1cc(CN2CCC(n3cnc4ccccc43)CC2)c2ccccn2c1=O  fraction unbound   0.21

(P) Cc1ccc(C2CCN(Cc3cc(C(=O)O)c(=O)n4ccccc34)CC2)cc1
(Q) O=C(O)c1cc(CN2CCc3cc(Cl)ccc3C2)c2ccccn2c1=O
(R) O=C(O)c1cc(CN2CCC(c3nc4ccccc4[nH]3)CC2)c2ccccn2c1=O
(S) O=C(O)c1cc(CN2CCc3ccccc3C2c2ccncc2)c2ccccn2c1=O (stereo not given)
Hi! Can you put these in order of fraction unbound, lowest number first? Use the labels to give the ranking in the order requested. Q, S, P, R
(Q: 0.02, S: 0.04, P: 0.09, R: 0.18)
